# SYSTEM_UNDER_TEST: UniProt:Q96EB6
# EXPERIMENT_DESCRIPTION: Mass spectrometry based assay of SIRT1 activity (deacetylation of a p53-based acetylated peptide)
# Assay type: biochemical
# TEST_CONTEXT: 10 nM SIRT1, 0.5 μM peptide substrate, 120 μM βNAD+, 25 minutes at 25° C.
READOUT_TYPE: EC1.5 (concentration of test compound that results in 150% activation of SIRT1)

# COMPOUND, SYSTEM_UNDER_TEST, RECORDED_RESULT
measured = [
    ("Cc1cnc(C(=O)NC2CCCc3ccc(-c4cccc(C(F)(F)F)c4)nc32)cn1 (stereo not shown)", "UniProt:Q96EB6", "A (EC1.5<10.0 μM)"),
    ("Cc1cc(NC(=O)C2CCCc3ccc(-c4cccc(C(F)(F)F)c4)nc32)no1 (stereo not shown)", "UniProt:Q96EB6", "C (EC1.5>25 μM)"),
    ("Cc1cc(C(=O)NC2CCCc3ccc(-c4cccc(C(F)(F)F)c4)nc32)n(C)n1 (stereo not shown)", "UniProt:Q96EB6", "A (EC1.5<10.0 μM)"),
    ("O=C(Nc1ccccn1)C1CCCc2ccc(-c3cccc(C(F)(F)F)c3)nc21 (stereo not shown)", "UniProt:Q96EB6", "C (EC1.5>25 μM)"),
]

---

# SYSTEM_UNDER_TEST: SIRT1 (Homo sapiens)
# Sequence (Q96EB6 whole entry): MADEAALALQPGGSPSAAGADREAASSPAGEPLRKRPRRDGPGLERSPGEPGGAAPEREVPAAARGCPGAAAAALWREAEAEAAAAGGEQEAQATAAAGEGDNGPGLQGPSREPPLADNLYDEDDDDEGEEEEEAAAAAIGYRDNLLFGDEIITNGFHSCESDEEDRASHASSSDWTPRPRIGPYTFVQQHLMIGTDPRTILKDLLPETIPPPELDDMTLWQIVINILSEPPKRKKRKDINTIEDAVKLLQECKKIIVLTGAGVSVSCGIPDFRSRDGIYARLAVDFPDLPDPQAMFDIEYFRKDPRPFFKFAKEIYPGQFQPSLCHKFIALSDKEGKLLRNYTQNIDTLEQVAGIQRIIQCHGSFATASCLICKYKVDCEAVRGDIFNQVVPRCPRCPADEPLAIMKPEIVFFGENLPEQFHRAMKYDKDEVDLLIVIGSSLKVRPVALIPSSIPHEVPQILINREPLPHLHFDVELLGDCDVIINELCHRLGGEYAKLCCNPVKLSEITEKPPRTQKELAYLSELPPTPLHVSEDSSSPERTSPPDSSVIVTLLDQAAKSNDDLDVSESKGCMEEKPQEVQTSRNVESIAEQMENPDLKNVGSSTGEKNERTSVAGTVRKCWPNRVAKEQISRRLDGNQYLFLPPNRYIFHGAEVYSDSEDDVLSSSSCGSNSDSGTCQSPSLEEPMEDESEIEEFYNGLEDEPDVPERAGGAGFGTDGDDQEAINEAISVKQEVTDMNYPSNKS
# EXPERIMENT_DESCRIPTION: Mass spectrometry based assay of SIRT1 activity (deacetylation of a p53-based acetylated peptide)
# Type: biochemical
# TEST_CONTEXT: 10 nM SIRT1, 0.5 μM peptide substrate, 120 μM βNAD+, 25 minutes at 25° C.
READOUT_TYPE: EC1.5 (concentration of test compound that results in 150% activation of SIRT1)

# MOLECULE, RECORDED_RESULT
measured = [
    ("CC(C)c1ccccc1-c1ccc2c(n1)C(NC(=O)c1cnccn1)CCC2 (centres unmarked)", "C (EC1.5>25 μM)"),
    ("O=C(Nc1ccnc(N2CCCC2)c1)C1CCCc2ccc(-c3cccc(N4CCOCC4)c3)nc21 (centres unmarked)", "A (EC1.5<10.0 μM)"),
    ("O=C(NC1CCCc2ccc(-c3ccc(F)c(C(F)(F)F)c3)nc21)c1cnccn1 (centres unmarked)", "A (EC1.5<10.0 μM)"),
    ("CC(C(=O)Nc1cccnc1)c1cccc(-c2cccc(C(F)(F)F)c2)n1 (centres unmarked)", "C (EC1.5>25 μM)"),
    ("O=C(NC1CCCc2ccc(-c3cccc(C(F)(F)F)c3)nc21)c1ccnc(OCC(O)CO)c1 (centres unmarked)", "A (EC1.5<10.0 μM)"),
    ("Cc1ccc(-c2ccc3c(n2)C(NC(=O)c2cnccn2)CCC3)cn1 (centres unmarked)", "C (EC1.5>25 μM)"),
    ("O=C(Nc1ncc(CN2CCCC2)s1)C1CCCc2ccc(-c3cccc(C(F)(F)F)c3)nc21 (centres unmarked)", "C (EC1.5>25 μM)"),
    ("O=C(NC1CCOc2ccc(-c3cccc(C(F)(F)F)c3)nc21)c1ccnc(CN2CCOCC2)c1 (centres unmarked)", "C (EC1.5>25 μM)"),
    ("CC(NC(=O)c1cccnc1)c1cccc(-c2cccc(C(F)(F)F)c2)n1 (centres unmarked) [Compound 216]", "C (EC1.5>25 μM)"),
    ("O=C(Nc1nc2ccccc2s1)C1CCCc2ccc(-c3cccc(C(F)(F)F)c3)nc21 (centres unmarked)", "C (EC1.5>25 μM)"),
    ("O=C(Nc1ccnc(N2CCCC2)c1)C1CCCc2ccc(-c3cccc(C(F)(F)F)c3F)nc21 (centres unmarked)", "C (EC1.5>25 μM)"),
    ("O=C(NC1CCCc2ccc(-c3cccc(C(F)(F)F)c3)nc21)c1cccc2c1OC(F)(F)O2 (centres unmarked)", "C (EC1.5>25 μM)"),
    ("O=C(NC1CCCc2ccc(-c3cccc(N4CCCC4)c3)nc21)c1cnccn1 (centres unmarked)", "C (EC1.5>25 μM)"),
    ("CS(=O)(=O)c1cccc(-c2ccc3c(n2)C(NC(=O)c2cnccn2)CCC3)c1 (centres unmarked)", "C (EC1.5>25 μM)"),
    ("O=C(NC1CCCc2ccc(-c3cccc(C(F)(F)F)c3)nc21)c1cccnc1OCC(O)CO (centres unmarked)", "C (EC1.5>25 μM)"),
    ("Cc1ccnc(NC(=O)C2CCCc3ccc(-c4cccc(C(F)(F)F)c4)nc32)n1 (centres unmarked)", "C (EC1.5>25 μM)"),
]

Where do these numbers come from? They come from patent US20110263564A1.
